Where do these numbers come from? They come from patent US20240400708A1.

I'd appreciate it if you could supply pKd values for the items below.
Target Or Test System: feline FcRn complex (FcRn-α subunit and β-microglobulin) (feline)
Procedure Details: SPR (Biacore), FcRn on SA chip, pH 6
Friendly reminder that pKd comes from taking -log10 of the concentration in mol/L.

Input: Entry feline IgG1a mutant ID No. 270: S252F, S434W, Q311W (antibody, part only; not given: variable domains and light chain, not shown: another chain or arm of the molecule) constant: ASTTAPSVFPLAPSCGTTSGATVALACLVLGYFPEPVTVSWNSGALTSGVHTFPAVLQASGLYSLSSMVTVPSSRWLSDTFTCNVAHPPSNTKVDKTVRKTDHPPGPKPCDCPKCPPPEMLGGPSIFIFPPKPKDTLFISRTPEVTCLVVDLGPDDSDVQITWFVDNTQVYTAKTSPREEQFNSTYRVVSVLPILHWDWLKGKEFKCKVNSKSLPSPIERTISKAKGQPHEPQVYVLPPAQEELSRNKVSVTCLIKSFHPPDIAVEWEITGQPEPENNYRTTPPQLDSDGTYFVYSKLSVDRSHWQRGNTYTCSVSHEALHWHHTQKSLTQSPGK has what pKd?
Output: 8.43

Input: For feline IgG1a mutant ID No. 291: S252Y, S428Y, Q311W, D312P, L314K (antibody, part only; not given: Variable domains, not shown: another chain or arm of the molecule; small tags and cut ends) constant: ASTTAPSVFPLAPSCGTTSGATVALACLVLGYFPEPVTVSWNSGALTSGVHTFPAVLQASGLYSLSSMVTVPSSRWLSDTFTCNVAHPPSNTKVDKTVRKTDHPPGPKPCDCPKCPPPEMLGGPSIFIFPPKPKDTLYISRTPEVTCLVVDLGPDDSDVQITWFVDNTQVYTAKTSPREEQFNSTYRVVSVLPILHWPWKKGKEFKCKVNSKSLPSPIERTISKAKGQPHEPQVYVLPPAQEELSRNKVSVTCLIKSFHPPDIAVEWEITGQPEPENNYRTTPPQLDSDGTYFVYSKLSVDRSHWQRGNTYTCSVYHEALHSHHTQKSLTQSPGK , what is its reported pKd?
Output: 7.40

Input: Look up pKd for this binder: feline IgG1a mutant ID No. 280: S252R, S434Y, Q311W (antibody, part only; not given: Variable domains, not shown: another chain or arm of the molecule) constant: ASTTAPSVFPLAPSCGTTSGATVALACLVLGYFPEPVTVSWNSGALTSGVHTFPAVLQASGLYSLSSMVTVPSSRWLSDTFTCNVAHPPSNTKVDKTVRKTDHPPGPKPCDCPKCPPPEMLGGPSIFIFPPKPKDTLRISRTPEVTCLVVDLGPDDSDVQITWFVDNTQVYTAKTSPREEQFNSTYRVVSVLPILHWDWLKGKEFKCKVNSKSLPSPIERTISKAKGQPHEPQVYVLPPAQEELSRNKVSVTCLIKSFHPPDIAVEWEITGQPEPENNYRTTPPQLDSDGTYFVYSKLSVDRSHWQRGNTYTCSVSHEALHYHHTQKSLTQSPGK
Output: 8.54

Input: What value of pKd has been reported for the following binder? feline IgG1a mutant ID No. 274: S252R, S434H, Q311W (antibody, part only; not given: Variable domains, not shown: another chain or arm of the molecule) constant: ASTTAPSVFPLAPSCGTTSGATVALACLVLGYFPEPVTVSWNSGALTSGVHTFPAVLQASGLYSLSSMVTVPSSRWLSDTFTCNVAHPPSNTKVDKTVRKTDHPPGPKPCDCPKCPPPEMLGGPSIFIFPPKPKDTLRISRTPEVTCLVVDLGPDDSDVQITWFVDNTQVYTAKTSPREEQFNSTYRVVSVLPILHWDWLKGKEFKCKVNSKSLPSPIERTISKAKGQPHEPQVYVLPPAQEELSRNKVSVTCLIKSFHPPDIAVEWEITGQPEPENNYRTTPPQLDSDGTYFVYSKLSVDRSHWQRGNTYTCSVSHEALHHHHTQKSLTQSPGK
Output: 8.25
